target-entity: Neu5Ac(a2-3)Gal(b1-3)GlcNAc(b1-3)Gal(b1-4)GlcNAc
test: glycan array binding signal (z-score within array); higher = stronger binding
run-conditions: glycan notation: IUPAC condensed, linker removed
This excerpt belongs to a sample that is enriched for the strongest signals.
Attribute: glycan array binding signal (z-score)
quantity-measured: glycan array binding signal (z-score)

binder	quantity-measured	reported
Jacalin (Artocarpus integrifolia) (protein) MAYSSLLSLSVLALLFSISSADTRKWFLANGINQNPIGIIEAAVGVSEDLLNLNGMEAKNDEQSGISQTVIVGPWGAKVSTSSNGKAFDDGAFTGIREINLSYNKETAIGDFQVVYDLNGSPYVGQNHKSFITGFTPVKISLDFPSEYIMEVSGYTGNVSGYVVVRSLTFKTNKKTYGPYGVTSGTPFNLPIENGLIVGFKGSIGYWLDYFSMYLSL	glycan array binding signal (z-score)	-0.274
MGL2 (Mus musculus), Q8JZN1 (protein) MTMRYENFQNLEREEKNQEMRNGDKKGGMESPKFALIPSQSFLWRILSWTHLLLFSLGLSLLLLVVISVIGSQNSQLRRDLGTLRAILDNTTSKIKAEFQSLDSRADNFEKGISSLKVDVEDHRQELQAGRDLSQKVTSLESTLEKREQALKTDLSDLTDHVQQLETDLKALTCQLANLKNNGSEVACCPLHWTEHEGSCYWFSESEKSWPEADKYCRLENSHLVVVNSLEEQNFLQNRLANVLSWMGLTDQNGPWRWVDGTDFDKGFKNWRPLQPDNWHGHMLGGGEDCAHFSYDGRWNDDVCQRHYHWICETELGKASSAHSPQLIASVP	glycan array binding signal (z-score)	-0.274
